# EXPERIMENTAL_TARGET: CCR-3 receptor (Homo sapiens, UniProt P51677)
# Sequence (P51677 1-355): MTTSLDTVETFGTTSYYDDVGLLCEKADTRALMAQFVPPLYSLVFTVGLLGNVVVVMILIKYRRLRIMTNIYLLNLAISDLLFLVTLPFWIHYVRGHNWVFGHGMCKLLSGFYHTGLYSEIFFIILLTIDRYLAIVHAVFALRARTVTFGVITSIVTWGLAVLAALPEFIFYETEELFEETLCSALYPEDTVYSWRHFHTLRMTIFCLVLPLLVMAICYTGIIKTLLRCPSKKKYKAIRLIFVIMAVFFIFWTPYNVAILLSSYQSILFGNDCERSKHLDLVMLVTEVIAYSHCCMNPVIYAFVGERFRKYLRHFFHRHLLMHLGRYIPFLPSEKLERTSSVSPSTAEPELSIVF
PROPERTY: IC50 (nM)

ITEM_SMILES | IC50 [nM]
O=C(NC1CCCCC1)N[C@@H]1CCC[C@H]1N1CCC(Cc2ccc(Cl)cc2)CC1 | 398
CC(C)NC(=O)N[C@@H]1CCC[C@H]1N1CCC(Cc2ccc(Cl)cc2)CC1 | 885
CCCCNC(=O)N[C@@H]1CCC[C@H]1N1CCC(Cc2ccc(Cl)cc2)CC1 | 507

A: CCOC(=O)CCNC(=O)N[C@@H]1CCC[C@H]1N1CCC(Cc2ccc(Cl)cc2)CC1
B: C=CCNC(=O)N[C@@H]1CCC[C@H]1N1CCC(Cc2ccc(Cl)cc2)CC1
// query Please state the entry with greater IC50 among A and B . Which one? Tell me its label.
// result A
(A: 729 nM, B: 499 nM)
